# measurement target: BTK kinase domain (Homo sapiens (Human))
# Sequence (Q06187 402-655): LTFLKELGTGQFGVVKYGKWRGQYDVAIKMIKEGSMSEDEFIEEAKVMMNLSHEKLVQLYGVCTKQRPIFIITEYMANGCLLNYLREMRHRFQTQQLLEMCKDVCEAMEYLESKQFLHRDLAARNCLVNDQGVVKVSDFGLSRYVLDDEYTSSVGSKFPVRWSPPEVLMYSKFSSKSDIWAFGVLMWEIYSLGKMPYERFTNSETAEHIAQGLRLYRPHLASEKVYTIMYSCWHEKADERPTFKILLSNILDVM
# measurement notes: Kinetic labeling experiments of Ibrutinib derivatives with BTK (intact protein LC/MS)
# test conditions: mechanism of BTK labeling
property: BTK Substitution/Addition

C=C(COC(C)=O)C(=O)N1CCC[C@@H](n2nc(-c3ccc(Oc4ccccc4)cc3)c3c(N)ncnc32)C1 [Compound 3g]
Substitution
C=C(CN(C)c1ccccc1)C(=O)N1CCC[C@@H](n2nc(-c3ccc(Oc4ccccc4)cc3)c3c(N)ncnc32)C1 [Compound 3d]
Substitution

====

# measurement notes: physchem
# test conditions: 5 mM GSH in potassium phosphate buffer, pH 8
property: half-life at 100 μM (min)
Field: numeric (min). Do not append units.

Query: Tell me its half-life at 100 μM given C=C(COC(=O)Oc1ccc([N+](=O)[O-])cc1)C(=O)NCc1ccccc1 as the entry.
Response: 54

Sourced from patent US20240139326A1
